tested on: U-2932; experiment: growth inhibition by drug alone (1 - RLU/untreated control) (fraction); higher = stronger inhibition; settings: 1000 nM; time (day): 5; 177Lu-lilotomab satetraxetan 0 ug/ml
Hi there, I'd appreciate the recorded growth inhibition by drug alone for every entry that follows.

Task: Which growth inhibition by drug alone is listed for CC(C)[C@]12O[C@H]1[C@@H]1O[C@]13[C@]1(O[C@H]1C[C@H]1C4=C(CC[C@@]13C)C(=O)OC4)[C@@H]2O [Triptolide] ?
Output: 0.978

Task: Please give the result for N[C@@H](Cc1ccc(N(CCCl)CCCl)cc1)C(=O)O too.
Output: -0.0265

Task: Please give the result for Cc1ccccc1-n1c(Cn2cnc3c(N)ncnc32)nc2cccc(C)c2c1=O too.
Output: 0.0186

Task: Please give the result for C[C@]12CCC(=O)C(O)=C1CC[C@@H]1[C@@H]2CC[C@]2(C)C(=O)CC[C@@H]12 too.
Output: -0.0433

Task: Please give the result for O=C(O)c1nn(Cc2ccc(Cl)cc2Cl)c2ccccc12 too.
Output: -0.0767

Task: Please give the result for CC[C@@H](C(=O)[C@@H](C)[C@@H](O)[C@H](C)[C@@H]1O[C@@H]([C@@H](CC)C(=O)O)CC[C@@H]1C)[C@H]1O[C@]2(C=C[C@@H](O)[C@]3(CC[C@@](C)([C@H]4CC[C@](O)(CC)[C@H](C)O4)O3)O2)[C@H](C)C[C@@H]1C too.
Output: 0.542

Task: Please give the result for CN(C)CCN(C)CCc1ccc(Cl)c(Cl)c1 too.
Output: -0.0761

Task: Please give the result for C=C1C[C@@H]2[C@H](CC[C@]3(C)C(=O)CC[C@@H]23)[C@@]2(C)C=CC(=O)C=C12 too.
Output: -0.1

Task: Please give the result for CC1=C2C[C@H]3[C@@H](CC=C4C[C@@H](O)CC[C@@]43C)[C@@H]2CC[C@]12O[C@@H]1C[C@H](C)CN[C@H]1[C@H]2C too.
Output: -0.037

Task: Please give the result for Cc1cc2c(C(C)C)c(O)c(O)c(C=O)c2c(O)c1-c1c(C)cc2c(C(C)C)c(O)c(O)c(C=O)c2c1O too.
Output: 0.00351

Task: Please give the result for Cn1cc(C2=C(c3cn(C4CCN(Cc5ccccn5)CC4)c4ccccc34)C(=O)NC2=O)c2ccccc21 too.
Output: -0.13

Task: Please give the result for CC(O)(CS(=O)(=O)c1ccc(F)cc1)C(=O)Nc1ccc(C#N)c(C(F)(F)F)c1 (configuration not stated) [Bicalutamide (Casodex)] too.
Output: -0.0598

====

Hi there, I'd appreciate the recorded growth inhibition by drug plus 177Lu-lilotomab satetraxetan for every entry that follows.
system: U-2932; assay: growth inhibition by drug plus 177Lu-lilotomab satetraxetan (1 - RLU/untreated control) (fraction); higher = stronger inhibition; settings: 10 nM; time (day): 5; 177Lu-lilotomab satetraxetan 1 ug/ml
Write the number on its own, no unit after it.

Task: Which growth inhibition by drug plus 177Lu-lilotomab satetraxetan is listed for CC(=O)Nc1ccc(OC[C@](C)(O)C(=O)Nc2ccc([N+](=O)[O-])c(C(F)(F)F)c2)cc1 ?
Output: 0.151

Task: Please give the result for Cc1cc2c(C(C)C)c(O)c(O)c(C=O)c2c(O)c1-c1c(C)cc2c(C(C)C)c(O)c(O)c(C=O)c2c1O too.
Output: -0.0445

Task: Please give the result for O=C(O)c1nn(Cc2ccc(Cl)cc2Cl)c2ccccc12 too.
Output: 0.132

Task: Please give the result for CC(C)[C@]12O[C@H]1[C@@H]1O[C@]13[C@]1(O[C@H]1C[C@H]1C4=C(CC[C@@]13C)C(=O)OC4)[C@@H]2O [Triptolide] too.
Output: 0.744
